System: Plasmodium berghei
Assay: Luciferase/luciferin-expressing antifolate-resistant parasites were used to infect a culture of HepG2 cells that were pre-incubated with compounds. Infected hepatocytes emit light due to the luciferase reaction. Assay results are presented as the percent inhibition of light emission compared to control. […]
Type: functional
Conditions: sporozoite, HEPG2TOX_HILL_SLOPE 0.987, HEPG2TOX_R_SQUARED 0.959, PBLUC_HILL_SLOPE 13.1, PBLUC_R_SQUARED 0.545, read-out: LUCIFERASE INFECTION ASSAY - IC50
MEASURED METRIC: IC50 (µM)
All answers are understood in µM, so give the number only.

Reported IC50 ( O=C1CCCN1CCCNc1cc(-c2ccccc2)c2ccccc2n1 ) = 3.77

====

Tested on: Plasmodium berghei
Test: Luciferase/luciferin-expressing antifolate-resistant parasites were used to infect a culture of HepG2 cells that were pre-incubated with compounds. Infected hepatocytes emit light due to the luciferase reaction. Assay results are presented as the percent inhibition of light emission compared to control. […]
Assay type: functional
Settings: sporozoite, read-out: LUCIFERASE INFECTION ASSAY - IC90
Items are presented alongside their recorded IC90.

Worked set:
INSERT INTO assay_data (molecule, reported_result) VALUES
  ('CCN(CC)S(=O)(=O)c1cccc(-c2nnc(SCC(=O)N3CCc4ccccc43)n2-c2ccccc2)c1', '> 10 µM'),
  ('NC(=O)c1cccc(-c2ccc3ncc(-c4cccc(O)c4)n3n2)c1', '7.72 µM'),
  ('C=CCn1c(SCC(=O)Nc2nnc(-c3ccccc3)o2)nc2cc(Cl)ccc2c1=O', '> 10 µM'),
  ('Clc1cccc(Sc2ccc(-c3ccccn3)s2)c1', '> 10.9 µM'),
  ('O=C(NC1CCN(Cc2ccccc2)CC1)c1oc2ccccc2c1COc1ccccc1', '> 10 µM');

Item: COc1cc(-c2cnc(N)c(-c3ccc(F)c(Cl)c3)c2)ccc1O | IC90: > 9.57 µM

Summary for this molecule, CC(C)c1cccc(Nc2nnc(C(O)c3ccccc3Cl)s2)c1 (stereo not given) : IC90 is > 10 µM

COc1ccc(OCCCC(=O)N(Cc2ccccc2)c2nc3c(C)cccc3s2)cc1 yielded IC90 of > 10 µM

Measured IC90 of COc1ccc(-c2csc(NC(=O)c3cc4cc5ccc(OC)cc5nc4s3)n2)cc1 : > 10 µM

Just so you know, measured IC90 for COc1cc(/C=C/C(=O)OC(C(=O)c2c[nH]c3ccccc23)c2ccccc2)cc(OC)c1OC (stereo not given) came out at > 10 µM

====

Test system: Plasmodium berghei
Assay: Luciferase/luciferin-expressing antifolate-resistant parasites were used to infect a culture of HepG2 cells that were pre-incubated with compounds. Infected hepatocytes emit light due to the luciferase reaction. Assay results are presented as the percent inhibition of light emission compared to control. […]
Format: functional
Details: sporozoite, HEPG2TOX_HILL_SLOPE 0.272, HEPG2TOX_R_SQUARED 0.219, PBLUC_HILL_SLOPE 1.92, PBLUC_R_SQUARED 0.644, read-out: LUCIFERASE INFECTION ASSAY - IC50
MEASURED METRIC: pIC50
By convention, pIC50 is the negative base-10 log of a molar concentration.

Entry CCCCCC(=O)Nc1ccc(C2=Nn3c(Cc4cccc5ccccc45)nnc3SC2)cc1 — recorded pIC50 = 5.15

Data provenance: ChEMBL document CHEMBL4483862
